Reported AUC(0-inf) values are given for each entry in this list.
assay: Pharmacokinetic (PK) analysis in rats; type: in vivo, Sprague Dawley (SD) rats; conditions: Sprague-Dawley, rat, po; SD rats, single intragastric administration, 5 mg/kg, plasma; read-out: Area Under Curve AUC0-∞
Could you give me the number in ng·h/mL? Just the number is fine.

CO[C@H]1CCN(Cc2cc3c(nc2C=O)N(C(=O)Nc2cc(NC4COC4)c(C#N)cn2)CCC3)C1=O :: 7590
COCCNc1cc(NC(=O)N2CCCc3cc(CN(C)C(=O)C4CCOCC4)c(C=O)nc32)ncc1C#N :: 6840
COCCNc1cc(NC(=O)N2CCCc3cc(CN(C)C(=O)[C@H]4CCCO4)c(C=O)nc32)ncc1C#N :: 6930
COC[C@@H](C)Nc1cc(NC(=O)N2CCCc3cc(CN4CC[C@@H](OC)C4=O)c(C=O)nc32)ncc1C#N :: 13000

Lookup: Request the reported AUC(0-inf) associated with `COC[C@@H](C)Nc1cc(NC(=O)N2CCCc3cc(CN(C)C(=O)[C@H]4CCCO4)c(C=O)nc32)ncc1C#N`
Found: 9480

---

Assay: Pharmacokinetic (PK) analysis in rats
Format: in vivo, Sprague Dawley (SD) rats
Details: Sprague-Dawley, rat, po; SD rats, single intragastric administration, 5 mg/kg, plasma; read-out: Plasma Concentration Cmax
Description: 6. Pharmacokinetic (PK) Analysis in Rats Mode of administration: a single intragastric administration. Formulation: 0.5% CMC and 1% Tween 80, ultrasonic dissolution. Sampling points: 0.5, 1, 2, 4, 6, 8 and 24 hours after administration. 1. […] The blood was centrifuged at room temperature at the speed of 1000˜3000×g for 5˜20 minutes to isolate the plasma, which was then stored at −80° C. […] 100 μL of treated solution were taken, and the concentration of the test compound was analyzed by LC/MS/MS. […]
The label depends only on Cmax: T if it is at least 2000 ng/mL, F if it is smaller.

Worked examples follow.
COCCNc1cc(NC(=O)N2CCCc3cc(CN(C)C(=O)C4COC4)c(C=O)nc32)ncc1C#N [Example 3] :: T
CO[C@H]1CCN(Cc2cc3c(nc2C=O)N(C(=O)Nc2cc(N[C@H]4CCOC4)c(C#N)cn2)CCC3)C1=O [Example 84] :: T
CO[C@@H]1CCN(c2cc(NC(=O)N3CCCc4cc(CN5CC[C@H](OC)C5=O)c(C=O)nc43)ncc2C#N)C1 [Example 54] :: T

Lookup: Answer whether Cmax of COCCNc1cc(NC(=O)N2CCCc3cc(CN(C)C(=O)[C@H]4CCCN4C)c(C=O)nc32)ncc1C#N [Example 9] is greater than or equal to 2000 ng/mL.
Found: F

Lookup: Now this one: CO[C@H]1CCN(Cc2cc3c(nc2C=O)N(C(=O)Nc2cc(N[C@@H]4CCOC4)c(C#N)cn2)CCC3)C1=O [Example 85]
Found: T

---

assay: Pharmacokinetic (PK) analysis in rats; format: in vivo, Sprague Dawley (SD) rats; conditions: Sprague-Dawley, rat, po; SD rats, single intragastric administration, 5 mg/kg, plasma; read-out: Half-Time t1/2 (converted)
Use 1 h as the dividing line for half-life, with the line itself on the t side and lower values as f.

Here are 5 compounds together with their reported answers.
COCCNc1cc(NC(=O)N2CCCc3cc(CN(C)C(=O)C4COC4)c(C=O)nc32)ncc1C#N :: t
COCCSc1cc(NC(=O)N2CCCc3cc(CN(C)C(=O)[C@H]4CCCO4)c(C=O)nc32)ncc1C#N :: t
CO[C@H]1CCN(Cc2cc3c(nc2C=O)N(C(=O)Nc2cc(N[C@@H]4CCOC4)c(C#N)cn2)CCC3)C1=O :: f
COCCNc1cc(NC(=O)N2CCCc3cc(CN(C)C(=O)[C@H]4CCCO4)c(C=O)nc32)ncc1C#N :: t
CO[C@@H]1CCN(Cc2cc3c(nc2C=O)N(C(=O)Nc2cc(N[C@@H]4CCOC4)c(C#N)cn2)CCC3)C1=O :: t

Next:
Lookup: Item `COC[C@@H](C)Oc1cc(NC(=O)N2CCCc3cc(CN4CC[C@H](OC)C4=O)c(C=O)nc32)ncc1C#N` with half-life of 1 h or above?
Found: f
